Tested on: Hs-578T
assay: NCI tumour cell line growth inhibition, 48 h
Activity calls are given as the source filed them. Rule as the data show it: active = GI50 up to about 1.1 µM and inactive = higher. Non-standard residues stand in square brackets, D forms with d. Residues, ends and D or L forms follow the SMILES beside them. *: point of attachment. Ac5c = NC1(C(=O)O)CCCC1; Boc = CC(C)(C)OC(=O)*; tBu = CC(C)(C)*
Outcome (select one): active, inactive

N#Cc1c(O)nc2nn3c4ccc5ccccc5c4nnc3c2c1-c1ccc(Cl)cc1	inactive
CCOC(=O)C1(C(=O)OCC)[C@@H](c2ccccc2)C2=NO[C@@H]3CCC[C@H]1[C@H]23	inactive
CC(C)[N+]([O-])(CCCNc1c2ccccc2nc2cccc([N+](=O)[O-])c12)C(C)C	active

Prompt: Recorded call for CC(N)(/C=C/c1ccccc1)C(=O)O (centres undefined) ?
Response: inactive

Prompt: Recorded call for O=C1c2cc3c(cc2CC12Cc1ccccc1C2)CCC3 ?
Response: inactive

Prompt: Recorded call for CCOC(=O)c1cn2c(n1)sc1cc(Cl)ccc12 ?
Response: inactive

Prompt: Recorded call for O=c1[nH]nc(Cc2ccc(Cl)cc2)n1/N=C/c1c[nH]c2ccccc12 ?
Response: inactive

Prompt: Recorded call for CCCNC(=O)c1cc(NC(=O)c2cc(NC(=O)CCS(=O)(=O)OC)cn2C)cn1C ?
Response: inactive

Prompt: Recorded call for O=c1oc2ccc3ccccc3c2cc1-c1nnc(Nc2ccccc2)s1 ?
Response: inactive

Prompt: Recorded call for O=C1c2c(O)ccc(O)c2C(=O)c2c(NCCNC(=O)C(O)C(O)C(O)C(O)CO)ccc(NCCNC(=O)C(O)C(O)C(O)C(O)CO)c21 (centres undefined) ?
Response: active

Prompt: Recorded call for O=C(O)C12CC3(C(=O)O)CC(C(=O)O)(CC(C(=O)O)(C1)C3=O)C2=O ?
Response: inactive

Prompt: Recorded call for CCC(CC)(CO)CNc1cc(Cl)nc(N)n1 ?
Response: inactive

Prompt: Recorded call for O=C1/C(=C/c2ccc(Cl)cc2)Oc2ccccc21 ?
Response: inactive

Prompt: Recorded call for O=C(CNC(=O)c1ccccc1)Oc1c(Cl)c(Cl)c(Cl)c(Cl)c1Cl ?
Response: inactive

Prompt: Recorded call for CC1(C)[C@@H](Cn2cnc3c(O)nc(N)nc32)CC[C@@]1(C)CO ?
Response: inactive

Prompt: Recorded call for CC(OC(C)(C)C)C1NC(=O)C(CCCCNC(=O)OC(C)(C)C)NC(=O)C(Cc2c[nH]c3ccccc23)NC(=O)C(Cc2ccccc2)NC(=O)C2(CCCC2)NC(=O)C(Cc2ccccc2)NC1=O (centres undefined) (cyclo([Ac5c]FWK(Boc)T(tBu)F); configuration not given here) ?
Response: inactive

Prompt: Recorded call for O=C1c2ccc(O)cc2OC(c2cc(O)c(O)c(O)c2)C1O (centres undefined) [DIHYDROBINETIN] ?
Response: inactive

Prompt: Recorded call for N=C(N)NS(=O)(=O)c1ccc(NC(=O)c2cccc3c(NNc4ccc(S(N)(=O)=O)cc4)c4ccccc4nc23)cc1 ?
Response: inactive

Prompt: Recorded call for C=CCCCCCCCCCOC1C=CC(O)C(CO)O1 (centres undefined) ?
Response: inactive

Prompt: Recorded call for CC#Cc1cc2c(cc1O)CC[C@@H]1[C@@H]2CC[C@]2(C)[C@@H](O)CC[C@@H]12 ?
Response: active

* * *

Tested on: A549
assay: NCI tumour cell line growth inhibition, 48 h
Activity calls are given as the source filed them. No stated cut-off is given here; in the data, active = GI50 up to about 1.1 µM and inactive = higher.
compounds and their reported GI50

Example results:
OCCCNc1[nH]cnc2nncc1-2	> 100 µM (inactive)
CN(C)CCNS(=O)(=O)c1ccc(N)cc1	> 100 µM (inactive)
O=c1[nH]c(=O)n2n1C1C=CC2CC1	> 100 µM (inactive)

For reference, reported GI50 for COC1=CC(=O)c2c(O)ccc(O)c2C1=O stands at 1.98 µM (inactive)

For reference, reported GI50 for C=C1C(=O)O[C@H]2C[C@@]3(COC(C)=O)C=COC=C(COC(=O)C(C)C)C3CC12 (stereo partly specified) stands at > 100 µM (inactive)

For reference, reported GI50 for O=C(CSc1nnc(Cc2ccccc2)o1)Nc1ccc([N+](=O)[O-])cc1 stands at 59.4 µM (inactive)
